List of IC50 values.
- tested-system: Accessory gene regulator protein A (Staphylococcus aureus)
- method-description: Inhibition of AGR quorum sensing system in methicillin-resistant Staphylococcus aureus AH2759 incubated for 15 hrs by P3-LUX reporter gene assay
Positions of bridges follow the written chain, without caps; N, C: chain ends. Residues, ends and D or L forms follow the SMILES beside them.
measurement-kind: IC50 (µM)

compound=Cc1cc(O)c2c(c1)C(=O)c1cc(O)cc(O)c1C2=O tested_system="Accessory gene regulator protein A (Staphylococcus aureus)" measurement_kind=IC50 endpoint_unit=µM recorded_measurement=17.1
compound=C[C@H](O)Cc1cc(O)c2c(c1)C(=O)c1cc(O)cc(O)c1C2=O tested_system="Accessory gene regulator protein A (Staphylococcus aureus)" measurement_kind=IC50 endpoint_unit=µM recorded_measurement=8.9
compound=CC(=O)Cc1cc(O)c2c(c1)C(=O)c1cc(O)cc(O)c1C2=O tested_system="Accessory gene regulator protein A (Staphylococcus aureus)" measurement_kind=IC50 endpoint_unit=µM recorded_measurement=19.8
compound="CC(C)C[C@@H]1NC(=O)[C@H](CO)NC(=O)[C@H](CO)NC(=O)[C@@H](NC(=O)[C@H](C)NC(=O)[C@H](CC(N)=O)NC(=O)[C@@H](NC(=O)CN)C(C)C)CSC(=O)[C@H](Cc2ccccc2)NC1=O (H-GVNACSSLF; thioester 5-C)" tested_system="Accessory gene regulator protein A (Staphylococcus aureus)" measurement_kind=IC50 endpoint_unit=µM recorded_measurement=0.012
compound=C[C@@H](O)[C@@H](O)c1cc(O)c2c(c1)C(=O)c1cc(O)cc(O)c1C2=O tested_system="Accessory gene regulator protein A (Staphylococcus aureus)" measurement_kind=IC50 endpoint_unit=µM recorded_measurement=26.5

* * *

- tested-system: Accessory gene regulator protein A (Staphylococcus aureus)
- Sequence (P0A0I7 whole entry): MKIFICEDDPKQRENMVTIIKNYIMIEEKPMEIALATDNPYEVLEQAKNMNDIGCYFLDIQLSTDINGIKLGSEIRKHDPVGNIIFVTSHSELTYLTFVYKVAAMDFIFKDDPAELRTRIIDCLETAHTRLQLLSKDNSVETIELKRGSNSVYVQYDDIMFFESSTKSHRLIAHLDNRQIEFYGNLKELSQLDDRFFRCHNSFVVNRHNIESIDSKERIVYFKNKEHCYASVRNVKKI
- method-description: Inhibition of AGR quorum sensing system in methicillin-resistant Staphylococcus aureus AH2759 incubated for 15 hrs by P3-LUX reporter gene assay
pIC50: −log10 of the molar value.
measurement-kind: pIC50

compound=O=C(O)c1cc(O)c2c(c1)C(=O)c1cc(O)c(Cl)c(O)c1C2=O tested_system="Accessory gene regulator protein A (Staphylococcus aureus)" recorded_measurement=4.42
compound="CC(=O)C(O)c1cc(O)c2c(c1)C(=O)c1cc(O)cc(O)c1C2=O (stereo not given)" tested_system="Accessory gene regulator protein A (Staphylococcus aureus)" recorded_measurement=4.52
compound=O=C(O)c1cc(O)c2c(c1)C(=O)c1cc(O)cc(O)c1C2=O tested_system="Accessory gene regulator protein A (Staphylococcus aureus)" recorded_measurement=4.51
compound=O=C1c2cc(O)cc(O)c2C(=O)c2c(O)cc(CO)cc21 tested_system="Accessory gene regulator protein A (Staphylococcus aureus)" recorded_measurement=5.09
compound=O=C(O)c1cc(O)c2c(c1)C(=O)c1cc(O)c(O)c(O)c1C2=O tested_system="Accessory gene regulator protein A (Staphylococcus aureus)" recorded_measurement=3.92
